Values compiled from patent US12291518B2.

- target.of.assay: THR alpha-LBD (Homo sapiens)
- Construct: except that THR alpha-LBD of a final concentration 0.25 nM was used; purchased Invitrogen PV4687
- measurement.protocol: THR-α Coactivator Peptide Recruitment Assay (LanthaScreen TR-FRET)
- Format: biochemical
- conditions: TR-FRET coactivator recruitment, THR alpha-LBD 0.25 nM; read-out: THRα EC50
pEC50: −log10 of the molar value.
measured.quantity: pEC50

{"smiles": "CCS(=O)(=O)N[C@H]1CCN(S(=O)(=O)c2cc(Oc3c(Cl)cc(-n4nc(C(F)F)c(=O)[nH]c4=O)cc3Cl)ccc2O)C1", "result.value": "6.70 to 8.70"}
{"smiles": "O=c1[nH]c(=O)n(-c2cc(Cl)c(Oc3cc(S(=O)(=O)N4CC[C@H](O)C4)c(O)cn3)c(Cl)c2)nc1C(F)F", "result.value": "6.70 to 8.70"}
{"smiles": "CS(=O)(=O)[C@H]1CCN(S(=O)(=O)c2cc(Oc3c(Cl)cc(-n4nc(C(F)F)c(=O)[nH]c4=O)cc3Cl)ccc2O)C1", "result.value": "6.70 to 8.70"}
{"smiles": "N#CC1(NS(=O)(=O)c2cc(Oc3c(Cl)cc(-n4nc(C(F)F)c(=O)[nH]c4=O)cc3Cl)ncc2O)CC1", "result.value": "6.70 to 8.70"}
{"smiles": "CNC(=O)C1(NS(=O)(=O)c2cc(Oc3c(Cl)cc(-n4nc(C(F)F)c(=O)[nH]c4=O)cc3Cl)ccc2O)CC1", "result.value": "6.00 to 6.70"}
{"smiles": "O=c1[nH]c(=O)n(-c2cc(Cl)c(Oc3ccc(O)c(S(=O)(=O)N[C@H]4CCN(S(=O)(=O)C5CC5)C4)c3)c(Cl)c2)nc1C(F)F", "result.value": "6.00 to 6.70"}

* * *

- target.of.assay: THR alpha-LBD (Homo sapiens)
- Construct: except that THR alpha-LBD of a final concentration 0.25 nM was used; purchased Invitrogen PV4687
- measurement.protocol: THR-α Coactivator Peptide Recruitment Assay (LanthaScreen TR-FRET)
- Assay type: biochemical
- conditions: TR-FRET coactivator recruitment, THR alpha-LBD 0.25 nM
measured.quantity: THRα Emax

{"compound": "O=C(NC1CCC1)c1cc(Oc2c(Cl)cc(-n3nc(C(F)(F)F)c(=O)[nH]c3=O)cc2Cl)c(F)cc1O", "result.value": "C (<40)"}
{"compound": "O=c1[nH]c(=O)n(-c2cc(Cl)c(Oc3ccc(O)c(S(=O)(=O)N[C@H]4C[C@@H](O)C4)c3)c(Cl)c2)nc1C(F)F", "result.value": "A (85~110)"}
{"compound": "O=C(NC1CC1)C1(NS(=O)(=O)c2cc(Oc3c(Cl)cc(-n4nc(C(F)(F)F)c(=O)[nH]c4=O)cc3Cl)ccc2O)CC1", "result.value": "C (<40)"}
{"compound": "CN1C[C@H](NS(=O)(=O)c2cc(Oc3c(Cl)cc(-n4nc(C(F)F)c(=O)[nH]c4=O)cc3Cl)ccc2O)CC1=O (single isomer, unassigned)", "result.value": "B (40~85)"}
{"compound": "CN(C)S(=O)(=O)c1cc(Oc2c(Cl)cc(-n3nc(C(F)F)c(=O)[nH]c3=O)cc2Cl)ncc1O", "result.value": "A (85~110)"}
{"compound": "O=c1[nH]c(=O)n(-c2cc(Cl)c(Oc3ccc(O)c(S(=O)(=O)NCC4(O)CC4)c3)c(Cl)c2)nc1C(F)F", "result.value": "A (85~110)"}
{"compound": "O=C(N[C@H]1CCOC1)c1cc(Oc2c(Cl)cc(-n3nc(C(F)F)c(=O)[nH]c3=O)cc2Cl)ccc1O", "result.value": "B (40~85)"}
{"compound": "O=C(CNS(=O)(=O)c1cc(Oc2c(Cl)cc(-n3nc(C(F)F)c(=O)[nH]c3=O)cc2Cl)ccc1O)NC1CC1", "result.value": "B (40~85)"}
{"compound": "O=c1[nH]c(=O)n(-c2cc(Cl)c(Oc3ccc(O)c(S(=O)(=O)NC4C[S+]([O-])C4)c3)c(Cl)c2)nc1C(F)F (centres unmarked)", "result.value": "A (85~110)"}
{"compound": "CS(=O)(=O)Cc1cc(Oc2c(Cl)cc(-n3nc(C(F)F)c(=O)[nH]c3=O)cc2Cl)ncc1O", "result.value": "B (40~85)"}
{"compound": "O=c1[nH]c(=O)n(-c2cc(Cl)c(Oc3cc(S(=O)(=O)N4CC(F)(F)C4)c(O)cn3)c(Cl)c2)nc1C(F)F", "result.value": "A (85~110)"}
{"compound": "CN([C@H]1C[C@H](O)C1)S(=O)(=O)c1cc(Oc2c(Cl)cc(-n3nc(C(F)F)c(=O)[nH]c3=O)cc2Cl)ccc1O", "result.value": "A (85~110)"}
{"compound": "CN1C[C@@H](NS(=O)(=O)c2cc(Oc3c(Cl)cc(-n4nc(C(F)F)c(=O)[nH]c4=O)cc3Cl)ccc2O)CC1=O (single isomer, unassigned)", "result.value": "B (40~85)"}
{"compound": "N#Cc1nn(-c2cc(Cl)c(Oc3cc(S(=O)(=O)NC4CCC4)c(O)cn3)c(Cl)c2)c(=O)[nH]c1=O", "result.value": "A (85~110)"}
{"compound": "O=c1cnn(-c2cc(Cl)c(Oc3cc(S(=O)(=O)N[C@H]4C[C@H](O)C4)c(O)cn3)c(Cl)c2)c(=O)[nH]1", "result.value": "B (40~85)"}
{"compound": "O=C(N1CCCC1)C1(NS(=O)(=O)c2cc(Oc3c(Cl)cc(-n4nc(C(F)F)c(=O)[nH]c4=O)cc3Cl)ncc2O)CC1", "result.value": "C (<40)"}
{"compound": "O=C(NC1CC1)C1(NS(=O)(=O)c2cc(Oc3c(Cl)cc(-n4nc(C(F)F)c(=O)[nH]c4=O)cc3Cl)ccc2O)CC1", "result.value": "B (40~85)"}
{"compound": "CS(=O)(=O)c1cc(Oc2c(Cl)cc(-n3nc(C#N)c(=O)[nH]c3=O)cc2Cl)ncc1O", "result.value": "B (40~85)"}
{"compound": "O=c1[nH]c(=O)n(-c2cc(Cl)c(Oc3ccc(O)c(S(=O)(=O)N4CC(O)C4)c3)c(Cl)c2)nc1C(F)F", "result.value": "A (85~110)"}
{"compound": "O=c1[nH]c(=O)n(-c2cc(Cl)c(Oc3ccc(O)c(S(=O)(=O)NC[C@H]4C[C@H](O)C4)c3)c(Cl)c2)nc1C(F)F", "result.value": "A (85~110)"}
{"compound": "CNC(=O)CNS(=O)(=O)c1cc(Oc2c(Cl)cc(-n3nc(C(F)F)c(=O)[nH]c3=O)cc2Cl)ccc1O", "result.value": "B (40~85)"}
{"compound": "O=c1[nH]c(=O)n(-c2cc(Cl)c(Oc3ccc(O)c(S(=O)(=O)N[C@H]4C[C@H](C(=O)NC5CC5)C4)c3)c(Cl)c2)nc1C(F)F", "result.value": "B (40~85)"}
{"compound": "O=c1[nH]c(=O)n(-c2cc(Cl)c(Oc3cc(S(=O)(=O)N4CC[C@@H](O)C4)c(O)cn3)c(Cl)c2)nc1C(F)F", "result.value": "B (40~85)"}
{"compound": "Cc1cc(-n2nc(C(F)F)c(=O)[nH]c2=O)cc(Cl)c1Oc1cc(S(=O)(=O)N[C@H]2C[C@H](O)C2)c(O)cn1", "result.value": "A (85~110)"}
{"compound": "O=C(NC1CCC1)c1cc(Oc2c(Cl)cc(-n3nc(C(F)F)c(=O)[nH]c3=O)cc2Cl)ncc1O", "result.value": "B (40~85)"}
{"compound": "Cc1nn(-c2cc(Cl)c(Oc3cc(S(=O)(=O)N[C@H]4C[C@H](O)C4)c(O)cn3)c(Cl)c2)c(=O)[nH]c1=O", "result.value": "B (40~85)"}

* * *

- target.of.assay: THR alpha-LBD (Homo sapiens, UniProt P10827)
- Construct: except that THR alpha-LBD of a final concentration 0.25 nM was used; purchased Invitrogen PV4687
- Sequence (P10827 163-410 isoform P10827-2 limits assumed, other chains not shown): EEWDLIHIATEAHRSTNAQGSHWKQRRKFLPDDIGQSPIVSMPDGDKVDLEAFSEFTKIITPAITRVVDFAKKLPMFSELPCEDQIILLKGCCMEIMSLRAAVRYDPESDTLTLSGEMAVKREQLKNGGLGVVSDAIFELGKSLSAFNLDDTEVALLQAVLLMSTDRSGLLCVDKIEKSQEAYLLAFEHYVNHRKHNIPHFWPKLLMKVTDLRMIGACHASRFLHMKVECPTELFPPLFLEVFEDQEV
- measurement.protocol: THR-α Coactivator Peptide Recruitment Assay (LanthaScreen TR-FRET)
- Format: biochemical
- conditions: TR-FRET coactivator recruitment, THR alpha-LBD 0.25 nM

{"compound": "O=C(c1cc(Oc2c(Cl)cc(-n3nc(Cl)c(=O)[nH]c3=O)cc2Cl)ccc1O)N1C[C@H]2CC[C@@H]1C2 (single isomer, unassigned) [Compound 7]", "THRα Emax": "A (85~110)"}
{"compound": "O=c1[nH]c(=O)n(-c2cc(Cl)c(Oc3ccc(O)c(S(=O)(=O)NC4(CO)CC4)c3)c(Cl)c2)nc1C(F)F [Compound 70]", "THRα Emax": "B (40~85)"}
{"compound": "CS(=O)(=O)c1cc(Oc2c(Cl)cc(-n3nc(C(F)F)c(=O)[nH]c3=O)cc2Cl)ccc1O [Compound 95]", "THRα Emax": "A (85~110)"}
{"compound": "O=c1[nH]c(=O)n(-c2cc(Cl)c(Oc3ccc(O)c(S(=O)(=O)NC4CC4)c3)c(Cl)c2)nc1C(F)(F)F [Compound 19]", "THRα Emax": "A (85~110)"}
{"compound": "O=C(N[C@H]1C[C@H](O)C1)c1cc(Oc2c(Cl)cc(-n3nc(C(F)F)c(=O)[nH]c3=O)cc2Cl)ccc1O [Compound 2]", "THRα Emax": "B (40~85)"}
